src = PubChem BioAssay

Assay: ATP-based viability of Huh7 replicon cells – cell-based, CellTiter-Glo luminescence, basal, 48 h, cytotoxicity control for HCV replication inhibitor project, primary screen (AID 1143);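 further: Huh7 hepatoma cells carrying a hepatitis C replication reporter with no stimulus; test concentration not given here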
Conditions: higher = more signal, called active from +8 up or from −8 down
I'd be grateful if you could share measured z-score for these entries.
Answers are plain numbers.

Some compounds with known z-score results, for comparison:
[[record]]
compound = "CO[C@H]1O[C@H](CO)[C@@H](OC(=O)Nc2ccc3c(c2)OCO3)[C@H](OC(=O)Nc2ccc3c(c2)OCO3)[C@H]1OC(=O)Nc1ccc2c(c1)OCO2"
recorded_measurement = -1.2

[[record]]
compound = "C=CCNC(=O)[C@@H]1[C@H]2C(=O)O[C@H](c3ccccc3)[C@H](c3ccccc3)N2[C@H](c2ccccc2OCCO)[C@@]12C(=O)N(C(=O)OCCOC)c1ccc(C#CCC(C(=O)OC)C(=O)OC)cc12"
recorded_measurement = -5.68

[[record]]
compound = "COC(=O)c1c(CC[C@@H](CO)NC(=O)Nc2ncn[nH]2)oc(C(=O)Cc2ccccc2)c1C(=O)OC"
recorded_measurement = 0.31


Report z-score for every entry below.
1. COCCOC(=O)N1C(=O)[C@@]2(c3cc(C#CCC(C(=O)OC)C(=O)OC)ccc31)[C@H](c1ccccc1OCCO)N1[C@H](c3ccccc3)[C@H](c3ccccc3)OC(=O)[C@H]1[C@@H]2C(=O)Nc1nc2ccccc2s1
2. O=C1O[C@H](c2ccccc2)[C@H](c2ccccc2)N2[C@H]1[C@@H](C(=O)NC[C@H](O)c1ccccc1)[C@]1(C(=O)Nc3ccc(C#CC4=CCCCC4)cc31)[C@H]2c1ccc(O)cc1
3. C[C@H]1C2[C@H](Cc3ccccc3)NC(=O)[C@]23C(=O)N[C@H](Cc2ccccc2)C(=O)N[C@H](Cc2ccccc2)C(=O)NC/C=C/CCC/C=C/C3[C@@H]2O[C@]12C (stereo partly drawn)
4. CC(C)OC(=O)C1=CCC(c2cccc(Cl)c2)O1 (stereo not drawn)
5. O=C1C[C@@](C(=O)O)(c2ccc([N+](=O)[O-])cc2)[C@@H](c2ccc(CO)cc2I)N1C1CCCCC1
6. C=CCNC(=O)[C@H]1[C@@H]2C(=O)O[C@@H](c3ccccc3)[C@@H](c3ccccc3)N2[C@@H](c2ccc(OCCO)cc2)[C@]12C(=O)N(C(=O)OCCOC)c1ccc(C#CC3(O)CCCCCC3)cc12
7. COc1cc2c(cc1O)C(c1ccc(CN3CCCC3)cc1)N(Cc1sc3ccccc3c1Cl)CC2 (stereo not drawn)

Result:
1: -2.67; 2: -5.36; 3: -2; 4: -5.17; 5: -4.77; 6: -2.88; 7: -3.63

Report z-score for every entry below.
1. Cc1ccc(N2C(=O)c3ccccc3[C@@H](C(=O)NCC(C)C)[C@@H]2c2ccc(CO)cc2)nc1
2. O=C1C2C=CC(C(O)CCc3ccccc3)N(Nc3ccccc3)C2C(=O)N1c1ccccc1 (stereo not drawn)
3. COC(=O)[C@@]1(Cc2ccc(OC)cc2)[C@H]2c3cc(C(=O)N(C)C)n(CCSCCO)c3C[C@H]2CN1C(=O)c1ccccc1

Result:
1. -0.308
2. 0.267
3. -2.19
